Assay: Cytotoxicity evaluation
Settings: human, Cytotoxicity (%), short treatment in the presence of S9 mix; 5 μg/mL (Table 4)
Measurement Kind: cytotoxicity at 5 μg/mL

Asked: Query: cytotoxicity at 5 μg/mL; subject: O=P1(N(CCCl)CCCl)NCCCO1 (stereo not shown) [Cyclophosphamide, reference compound]
Given back: 13%

----------
Experiment: Cytotoxicity evaluation
Settings: human, Cytotoxicity (%), short treatment in the presence of S9 mix; 0.25 mmol/L
Measurement Kind: cytotoxicity at 0.25 mmol/L (%)
API: value field is a number in %; no unit string.

Asked: Query: cytotoxicity at 0.25 mmol/L; subject: CCCCC/C=C\C/C=C\CCCCCCCCP(=O)(OCC)OCC
Given back: 73
